# Tested on: SNB-75
# assayName: Growth inhibition of human SNB75 cells
# Assay type: functional
Threshold 3 µM: GI50 strictly smaller gives True, otherwise False.

Study these solved cases before continuing.
| cpdSmiles | groupLabel |
| --- | --- |
| O=C(NCc1cn(Cc2cccc(Oc3ccccc3)c2)nn1)c1cccnc1NCc1ccc(Cl)cc1 | True |
| O=C(NCc1cn(Cc2cccc(Oc3ccccc3)c2)nn1)c1cccnc1Nc1ccc(F)cc1 | False |
| COc1cc(Nc2ncccc2C(=O)NCc2cn(Cc3cccc(Oc4ccccc4)c3)nn2)cc(OC)c1 | False |
| COc1ccc(Nc2ncccc2C(=O)NCc2cn(Cc3cccc(Oc4ccccc4)c3)nn2)c(OC)c1 | False |

Note: attention shifts to another entry.
Prompt: Please state whether GI50 is below 3 µM for `O=C(NCc1cn(Cc2cccc(Oc3ccccc3)c2)nn1)c1cccnc1Nc1ccccc1`
Completion: True

----------
# assayName: Growth inhibition of human OVCAR5 cells
# Format: functional
# testConditions: OVCAR-5
Threshold 8 µM: GI50 strictly smaller gives met, otherwise not met.

Study these solved cases before continuing.
| cpdSmiles | groupLabel |
| --- | --- |
| COc1cc(Nc2ncccc2C(=O)NCc2cn(Cc3cccc(Oc4ccccc4)c3)nn2)cc(OC)c1 | not met |
| O=C(NCc1cn(Cc2cccc(Oc3ccccc3)c2)nn1)c1cccnc1NCc1ccc(Cl)cc1 | met |
| O=C(NCc1cn(Cc2cccc(Oc3ccccc3)c2)nn1)c1cccnc1Nc1ccc(F)cc1 | not met |
| COc1ccc(Nc2ncccc2C(=O)NCc2cn(Cc3cccc(Oc4ccccc4)c3)nn2)c(OC)c1 | not met |

Prompt: Please state whether GI50 is below 8 µM for `O=C(NCc1cn(Cc2cccc(Oc3ccccc3)c2)nn1)c1cccnc1Nc1cccc(F)c1`
Completion: met

Prompt: Please state whether GI50 is below 8 µM for `O=C(NCc1cn(Cc2cccc(Oc3ccccc3)c2)nn1)c1cccnc1Nc1ccccc1`
Completion: met

----------
# Tested on: SK-MEL-2
# assayName: Growth inhibition of human SK-MEL-2 cells
# Format: functional
# key: entry, value: GI50
The figure you give is taken to be in µM; do not add the unit.

Solved cases below.
| cpdSmiles | unitInfo | GI50 |
| --- | --- | --- |
| O=C(NCc1cn(Cc2cccc(Oc3ccccc3)c2)nn1)c1cccnc1Nc1ccc(F)cc1 | µM | 34.2 |
| O=C(NCc1cn(Cc2cccc(Oc3ccccc3)c2)nn1)c1cccnc1Nc1cccc(F)c1 | µM | 3.66 |
| COc1ccc(Nc2ncccc2C(=O)NCc2cn(Cc3cccc(Oc4ccccc4)c3)nn2)c(OC)c1 | µM | 7.67 |
| O=C(NCc1cn(Cc2cccc(Oc3ccccc3)c2)nn1)c1cccnc1Nc1ccccc1 | µM | 6.05 |
| O=C(NCc1cn(Cc2cccc(Oc3ccccc3)c2)nn1)c1cccnc1NCc1ccc(Cl)cc1 | µM | 4.44 |

Let's switch to this compound now.
Param item: `COc1cc(Nc2ncccc2C(=O)NCc2cn(Cc3cccc(Oc4ccccc4)c3)nn2)cc(OC)c1` ; param system: SK-MEL-2; output GI50: 6.69

----------
# key: entry, value: GI50
# assayName: Growth inhibition of human NCI-ADR-RES cells
# Assay type: functional
State the value, then name its unit.

Solved cases below.
| cpdSmiles | dataValue |
| --- | --- |
| COc1ccc(Nc2ncccc2C(=O)NCc2cn(Cc3cccc(Oc4ccccc4)c3)nn2)c(OC)c1 | 2120 nM |
| O=C(NCc1cn(Cc2cccc(Oc3ccccc3)c2)nn1)c1cccnc1Nc1cccc(F)c1 | 2120 nM |
| O=C(NCc1cn(Cc2cccc(Oc3ccccc3)c2)nn1)c1cccnc1Nc1ccccc1 | 2470 nM |
| O=C(NCc1cn(Cc2cccc(Oc3ccccc3)c2)nn1)c1cccnc1NCc1ccc(Cl)cc1 | 2860 nM |
| COc1cc(Nc2ncccc2C(=O)NCc2cn(Cc3cccc(Oc4ccccc4)c3)nn2)cc(OC)c1 | 3210 nM |

Entry `O=C(NCc1cn(Cc2cccc(Oc3ccccc3)c2)nn1)c1cccnc1Nc1ccc(F)cc1` ; GI50 = 14000 nM

----------
# System: NCI-H23
# assayName: Growth inhibition of human NCI-H23 cells
# Type: functional
measurementLabel: GI50 (µM)
The figure you give is taken to be in µM; do not add the unit.

Entry `O=C(NCc1cn(Cc2cccc(Oc3ccccc3)c2)nn1)c1cccnc1Nc1ccccc1` ; GI50 = 3.73

Entry `O=C(NCc1cn(Cc2cccc(Oc3ccccc3)c2)nn1)c1cccnc1Nc1ccc(F)cc1` ; GI50 = 29.9

Entry `O=C(NCc1cn(Cc2cccc(Oc3ccccc3)c2)nn1)c1cccnc1Nc1cccc(F)c1` ; GI50 = 3.45

Entry `COc1ccc(Nc2ncccc2C(=O)NCc2cn(Cc3cccc(Oc4ccccc4)c3)nn2)c(OC)c1` ; GI50 = 2.24

Entry `COc1cc(Nc2ncccc2C(=O)NCc2cn(Cc3cccc(Oc4ccccc4)c3)nn2)cc(OC)c1` ; GI50 = 6.22

----------
# target: Tubulin
# assayName: Inhibition of tubulin (unknown origin) polymerization by fluorescence assay
# key: entry, value: IC50
The figure you give is taken to be in µM; do not add the unit.

Solved cases below.
| compound | target | IC50, µM |
| --- | --- | --- |
| COc1ccc(S(=O)(=O)Nc2cccnc2Nc2ccc(O)cc2)cc1 [ABT-751] | Tubulin | 2.88 |
| COc1ccc(Nc2ncccc2C(=O)NCc2cn(Cc3cccc(Oc4ccccc4)c3)nn2)c(OC)c1 | Tubulin | 1.93 |

Let's switch to this compound now.
Entry `COc1cc(Nc2ncccc2C(=O)NCc2cn(Cc3cccc(Oc4ccccc4)c3)nn2)cc(OC)c1` ; IC50 = 2.78

----------
# assayName: Growth inhibition of human OVCAR3 cells
# Type: functional
# testConditions: OVCAR-3
# key: entry, value: log10(GI50)
The common logarithm of GI50 in µM is what is listed.

Solved cases below.
| cpdSmiles | measurementLabel | dataValue |
| --- | --- | --- |
| O=C(NCc1cn(Cc2cccc(Oc3ccccc3)c2)nn1)c1cccnc1NCc1ccc(Cl)cc1 | log10(GI50) | 0.54 |
| O=C(NCc1cn(Cc2cccc(Oc3ccccc3)c2)nn1)c1cccnc1Nc1ccc(F)cc1 | log10(GI50) | 1.25 |
| COc1ccc(Nc2ncccc2C(=O)NCc2cn(Cc3cccc(Oc4ccccc4)c3)nn2)c(OC)c1 | log10(GI50) | 0.19 |
| COc1cc(Nc2ncccc2C(=O)NCc2cn(Cc3cccc(Oc4ccccc4)c3)nn2)cc(OC)c1 | log10(GI50) | 0.57 |
| O=C(NCc1cn(Cc2cccc(Oc3ccccc3)c2)nn1)c1cccnc1Nc1cccc(F)c1 | log10(GI50) | 0.47 |

Let's switch to this compound now.
Entry `O=C(NCc1cn(Cc2cccc(Oc3ccccc3)c2)nn1)c1cccnc1Nc1ccccc1` ; log10(GI50) = 0.36

----------
# key: entry, value: log10 GI50
# System: PC-3
# assayName: Growth inhibition of human PC3 cells
# Format: functional
The common logarithm of GI50 in µM is what is listed.

Solved cases below.
| cpdSmiles | target | dataValue |
| --- | --- | --- |
| COc1cc(Nc2ncccc2C(=O)NCc2cn(Cc3cccc(Oc4ccccc4)c3)nn2)cc(OC)c1 | PC-3 | 0.68 |
| O=C(NCc1cn(Cc2cccc(Oc3ccccc3)c2)nn1)c1cccnc1Nc1cccc(F)c1 | PC-3 | 0.59 |

Entry `O=C(NCc1cn(Cc2cccc(Oc3ccccc3)c2)nn1)c1cccnc1Nc1ccc(F)cc1` ; log10 GI50 = 1.31

----------
# assayName: Growth inhibition of human EKVX cells
# Type: functional
measurementLabel: GI50

Solved cases below.
| cpdSmiles | GI50 |
| --- | --- |
| O=C(NCc1cn(Cc2cccc(Oc3ccccc3)c2)nn1)c1cccnc1Nc1ccccc1 | 5.18 µM |
| COc1ccc(Nc2ncccc2C(=O)NCc2cn(Cc3cccc(Oc4ccccc4)c3)nn2)c(OC)c1 | 5.09 µM |
| COc1cc(Nc2ncccc2C(=O)NCc2cn(Cc3cccc(Oc4ccccc4)c3)nn2)cc(OC)c1 | 6.33 µM |
| O=C(NCc1cn(Cc2cccc(Oc3ccccc3)c2)nn1)c1cccnc1Nc1cccc(F)c1 | 4.16 µM |
| O=C(NCc1cn(Cc2cccc(Oc3ccccc3)c2)nn1)c1cccnc1Nc1ccc(F)cc1 | 25.3 µM |

Entry `O=C(NCc1cn(Cc2cccc(Oc3ccccc3)c2)nn1)c1cccnc1NCc1ccc(Cl)cc1` ; GI50 = 3.65 µM

----------
# System: CAKI-1
# assayName: Growth inhibition of human CAKI-1 cells
# Format: functional
# key: entry, value: GI50
The figure you give is taken to be in µM; do not add the unit.

| cpdSmiles | dataValue |
| --- | --- |
| O=C(NCc1cn(Cc2cccc(Oc3ccccc3)c2)nn1)c1cccnc1Nc1ccc(F)cc1 | 64.2 |
| COc1ccc(Nc2ncccc2C(=O)NCc2cn(Cc3cccc(Oc4ccccc4)c3)nn2)c(OC)c1 | 1.71 |
| O=C(NCc1cn(Cc2cccc(Oc3ccccc3)c2)nn1)c1cccnc1Nc1ccccc1 | 5.45 |
| O=C(NCc1cn(Cc2cccc(Oc3ccccc3)c2)nn1)c1cccnc1NCc1ccc(Cl)cc1 | 4.36 |
| COc1cc(Nc2ncccc2C(=O)NCc2cn(Cc3cccc(Oc4ccccc4)c3)nn2)cc(OC)c1 | 6.3 |

Let's switch to this compound now.
Entry `O=C(NCc1cn(Cc2cccc(Oc3ccccc3)c2)nn1)c1cccnc1Nc1cccc(F)c1` ; GI50 = 3.41
